These entries and their values trace back to PubChem BioAssay AID2060619.

# Test system: 323965-272-R-J2-PDC complex spheroid viability
# Experiment Notes: Anticancer human tumor 323965-272-R-J2-PDC patient-derived pancreatic carcinoma cell line growth inhibition [CLK]
# Condition Context: second compound 0.316 µM; first compound 0.0316 µM; stronger effect = lower value
Mark MET only for viability, T/C values smaller than 30%; exact matches and larger values are NOT MET.

CCN1CCN(Cc2ccc(Nc3ncc(F)c(-c4cc(F)c5nc(C)n(C(C)C)c5c4)n3)nc2)CC1 + CNC(=O)c1ccc(Nc2nc(OC3CCCC3)c3c(-c4ccc5nc(C)oc5c4)c[nH]c3n2)c(OC)c1 : NOT MET

Could you please tell me whether viability, T/C recorded for C=C(F)C(=O)N1CCN(c2nc(OCC3CCCN3C)nc3c2CCN(c2cccc4cccc(Cl)c24)C3)CC1CC#N (stereo not given) + CNC(=O)c1ccc(Nc2nc(OC3CCCC3)c3c(-c4ccc5nc(C)oc5c4)c[nH]c3n2)c(OC)c1 is less than 30%? NOT MET

Could you please tell me whether viability, T/C recorded for C=C(F)C(=O)N1CCN(c2nc(OCC3CCCN3C)nc3c2CCN(c2cccc4cccc(Cl)c24)C3)CC1CC#N (stereo not given) + CN1CCN(c2cc(C(=O)Nc3cc4cc(-c5cnn(C)c5)ccc4cn3)ccn2)CC1 is less than 30%? MET

Could you please tell me whether viability, T/C recorded for C#Cc1c(F)ccc2cc(O)cc(-c3ncc4c(N5CC6CCC(C5)N6)nc(OCC56CCCN5CC(F)C6)nc4c3F)c12 (stereo not given) + CNC(=O)c1ccc(Nc2nc(OC3CCCC3)c3c(-c4ccc5nc(C)oc5c4)c[nH]c3n2)c(OC)c1 is less than 30%? NOT MET

Could you please tell me whether viability, T/C recorded for CCc1c2c(nc3ccc(O)cc13)-c1cc3c(c(=O)n1C2)COC(=O)[C@]3(O)CC + CN1CCN(c2cc(C(=O)Nc3cc4cc(-c5cnn(C)c5)ccc4cn3)ccn2)CC1 is less than 30%? MET

Could you please tell me whether viability, T/C recorded for COc1cccc2c1C(=O)c1c(O)c3c(c(O)c1C2=O)CC(O)(C(=O)CO)CC3OC1CC(N)C(O)C(C)O1 (stereo not given) + CNC(=O)c1ccc(Nc2nc(OC3CCCC3)c3c(-c4ccc5nc(C)oc5c4)c[nH]c3n2)c(OC)c1 is less than 30%? NOT MET

Could you please tell me whether viability, T/C recorded for Nc1ccn(C2OC(CO)C(O)C2(F)F)c(=O)n1 (stereo not given) + CN1CCN(c2cc(C(=O)Nc3cc4cc(-c5cnn(C)c5)ccc4cn3)ccn2)CC1 is less than 30%? MET

----------
Give viability, T/C for every item shown.
# Tested on: 323965-272-R-J2-PDC complex spheroid viability
# Experiment Notes: Anticancer human tumor 323965-272-R-J2-PDC cell line growth inhibition [CLK];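 also: spheroids exposed to agents for seven days before readout; percent of DMSO vehicle control wells so 100% = untreated growth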
# Condition Context: second compound 3.16 µM; first compound 0.03 µM; stronger effect = lower value
Give bare numbers, in %.

Here's what some known entries look like.
CC(C)CC(NC(=O)C(Cc1ccccc1)NC(=O)c1cnccn1)B(O)O (stereo not drawn) + CN1CCN(c2cc(C(=O)Nc3cc4cc(-c5cnn(C)c5)ccc4cn3)ccn2)CC1 : 0.31
NC(=O)C(=Cn1cnc(-c2cc(C(F)(F)F)cc(C(F)(F)F)c2)n1)c1cncnc1 + CNC(=O)c1ccc(Nc2nc(OC3CCCC3)c3c(-c4ccc5nc(C)oc5c4)c[nH]c3n2)c(OC)c1 : 51.4

Read the entry C=CC(=O)Nc1cc(Nc2nccc(-c3cn(C)c4ccccc34)n2)c(OC)cc1N(C)CCN(C)C + CN1CCN(c2cc(C(=O)Nc3cc4cc(-c5cnn(C)c5)ccc4cn3)ccn2)CC1 and write its reported viability, T/C. 2.7
